Values compiled from patent US7572923B2.

Would you mind telling me the reported IC50 of each entry?
System: human colon cancer cell line (Col2)
MEASUREMENT DESCRIPTION: Inhibition of cancer cell line proliferation, Col2
Assay type: cell-based
TEST SETTINGS: 96 h, 3˜4 days incubation, absorbance at 515 nm
Description: For measuring the proliferation inhibition by indirubin compound, the method disclosed in K. Likhitwitayawuid et al. Journal. Nat. Prod. […] Followings are simple description of this method. The cancer cell line is diluted into 5×10^4 cfu/ml. Then, various concentrations of test compounds are added to 96 well microtiter plate containing diluted cell line. […] Then, using ELISA plate detector, the absorbance at 515 nm is measured. IC50 is measured by non-linear regression method.

Please review the entries below; each comes with its answer.
O=C1Nc2ccc(F)cc2C1=C1Nc2ccccc2C1=NO	64.2 µM
Cc1cc(C)c2c(c1)C(=C1Nc3ccccc3C1=O)C(=O)N2	> 100 µM
O=C1Nc2ccc(Cl)cc2C1=C1Nc2ccccc2C1=O	> 100 µM
O=C1Nc2ccc(I)cc2C1=C1Nc2ccccc2C1=NO	> 100 µM
O=C1Nc2ccc(F)cc2C1=C1Nc2ccccc2C1=O	> 100 µM

Consider the following items and state reported IC50 for each.
1. O=C1Nc2ccc([N+](=O)[O-])cc2C1=C1Nc2ccccc2C1=O
2. O=C1Nc2ccccc2C1=C1Nc2ccc(Br)cc2C1=O
3. O=C1Nc2ccccc2C1=C1Nc2ccccc2C1=NO
4. O=C1Nc2ccccc2C1=C1Nc2ccccc2C1=O [AGM001, 1H,1′H-[2,3′] biindolylidene-3,2′-dione]
5. O=C1Nc2ccc(I)cc2C1=C1Nc2ccccc2C1=O
6. O=C1Nc2ccc(Cl)cc2C1=C1Nc2ccccc2C1=NO

Given back:
> 100 µM
> 100 µM
> 100 µM
> 100 µM
> 100 µM
16.8 µM
